Target: human PPARα (NR1C1) (Homo sapiens, UniProt Q07869)
Sequence (Q07869 whole entry): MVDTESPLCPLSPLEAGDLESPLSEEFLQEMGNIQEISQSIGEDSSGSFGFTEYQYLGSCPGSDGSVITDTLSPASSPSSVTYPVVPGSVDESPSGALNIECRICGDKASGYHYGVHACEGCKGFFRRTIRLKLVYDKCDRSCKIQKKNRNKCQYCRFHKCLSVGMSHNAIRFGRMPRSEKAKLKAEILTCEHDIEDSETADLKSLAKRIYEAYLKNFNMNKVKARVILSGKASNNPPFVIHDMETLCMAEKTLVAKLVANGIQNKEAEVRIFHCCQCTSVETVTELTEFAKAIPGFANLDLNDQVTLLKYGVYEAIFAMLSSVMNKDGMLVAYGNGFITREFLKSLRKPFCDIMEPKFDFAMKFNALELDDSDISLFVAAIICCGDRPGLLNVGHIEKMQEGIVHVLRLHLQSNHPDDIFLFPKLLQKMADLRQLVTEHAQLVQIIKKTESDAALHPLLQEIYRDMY
Experiment: Cell-based human PPARα transactivation (nuclear receptor reporter) assay
Details: luciferase reporter cells, 24 h treatment, FIG. 1
For each of the compounds below, state its PPARα transactivation: concentration at which (or starting at which) active.
Numbers only, in µM.

Examples from the recorded data:
CCCc1cc(C(=O)c2ccc(F)cc2)ccc1OCCCOc1ccc2c(cnn2CC(=O)OC)c1 [MP-152] :: 1
Cc1nc(-c2ccc(C(F)(F)F)cc2)sc1C(=O)NCc1ccc(OC(C)(C)C(=O)O)cc1 [GW590375, reference compound] :: 0.001
CCCc1cc(C(=O)c2ccc(-c3ccccc3)cc2)ccc1OCCCOc1ccc2c(cnn2CC(=O)O)c1 [MP-151] :: 5
CCCc1cc(C(=O)c2ccc(F)cc2)ccc1OCCCOc1ccc2c(cnn2CC(=O)O)c1 [MP-154] :: 1

Then this compound:
Exercise: // query PPARα transactivation: concentration at which (or starting at which) active value for entry CCCc1cc(C(=O)c2ccc(-c3ccccc3)cc2)ccc1OCCCOc1ccc2c(cnn2CC(=O)OC)c1 [MP-153]
Key: 5

meta.source: patent US20220378744A1
